# System: SNB-75 CNS
# assay name: NCI tumour cell line growth inhibition, 48 h
Answer each item with its documented TGI.

The reported value for N#Cc1nc(Cc2cccs2)oc1N in terms of TGI is > 100 µM

TGI in this record for C[Si](C)(C)[C@@]1([Se]c2ccccc2)CC[C@@H]1C(=O)c1ccccc1 : > 100 µM

Reported TGI of CCc1ccc(/C=C2/SC(=S)NC2=O)cc1 : > 100 µM

Value of TGI reported for the compound COc1cc(SC)ccc1C(=O)N1CCCC(C)C1 (stereo not drawn) is > 100 µM

// CCn1c(-c2cc3ccccc3cc2OC(=O)c2ccccc2)n[nH]c1=S : TGI value = > 50 µM

Looking up O=c1oc2ccccc2cc1-c1nc2ccccc2s1 , I found its TGI recorded as 17.4 µM

compound Clc1cccc(Cl)c1C1ON=C(c2ccccc2)N1C12CC3CC(CC(C3)C1)C2 (stereo not drawn) , TGI observed: 18.3 µM

The compound listed as C=C1C(=O)O[C@H]2[C@H](OC(C)=O)[C@@H](C)CCC/C(C)=C/CC[C@]3(CO3)[C@H](O)C[C@@H]12 shows TGI equal to 22.9 µM

Reported TGI ( Cc1ccc(Oc2cc(C)ccc2P(=O)(O)O)cc1 ) = > 100 µM

TGI reading for Nc1ncc(Cc2nn3c(COc4ccc(Cl)cc4)nnc3s2)s1 : > 100 µM

Looking up C(=C1/CCCCC([n+]2ccccc2)=N1)/c1ccccc1 , I found its TGI recorded as > 100 µM

response.value for C[C@@H](CC(O)C(O)C(C)(C)O)C1CCC23CC12CCC1[C@@]2(C)CCC(=O)C(C)(C)C2CC(OC2OC(CO)C(O)C(O)C2O)[C@]13C (stereo partly drawn) (field: TGI) = > 10 µM

Measured TGI of CCCCN=C(OC1C=CCCC1)SC (stereo not drawn) : > 100 µM

Sample NC(=O)Cn1c(=O)[nH]c(=O)c2[nH]cnc21 ; TGI observed: > 100 µM

Kindly note the recorded TGI for O=C(O)c1oc2ccc([N+](=O)[O-])c3c2c1CCC3 , which is > 100 µM

Lab note: Fc1cc(Nc2ccc3c(OCCCN4CCOCC4)cccc3n2)ccc1Cl gave TGI of 6.2 µM

Lab note: measured TGI of COc1cccc2c1C(=O)c1c(O)c3c(c(O)c1C2=O)C[C@](O)(C(=O)CO)CC3OC1CC(N)C(OC2CCCCO2)C(C)O1 (stereo partly drawn) was 1.18 µM

Recorded TGI (compound O=[N+]([O-])c1ccc(-c2nc3ccccc3o2)cc1 ): > 100 µM
